// kon lookup, one value per entry
biological target: T1, cynomolgus monkey serum albumin (cynomolgus monkey, UniProt A2V9Z4 25-608); assay: SPR (Biacore 8K), albumin immobilised, 25 C, 1:1 kinetics
T1 construct: bought protein, amine-coupled to a CM5 chip; also called Cyno SA
The reply should contain only the number, in M⁻¹ s⁻¹.

1) INS Analog 24 (other, single-chain insulin B-L2-A-L1-VHH fusion; also called Ex. 24) FVSQHLCGSHLVEALHLVCGERGFHYTPKTGGGGGGGIVEQCCHSICSLEQLENYCGPGPQPGPQPGPQPGPQPGPQPGPQPGPQPGPQEVQLLESGGGLVQPGGSLRLSCAASGRYIDETAVAWFRQAPGKEREFVAGIGGGVDITYYADSVKGRFTISRDNSKNTLYLQMNSLRPEDTAVYYCAARPGRPLITSKVADLYPYWGQGTLVTVSSPP = 130000
2) INS Analog 25 (other, single-chain insulin B-L2-A-L1-VHH fusion; also called Ex. 25) FVSQHLCGSHLVEALRLVCGERGFFYTPKTGGGGGGGIVEQCCTSICSLYQLENYCGGGGGQGGGGQGGGGQGGGGQGGGGQEVQLLESGGGLVQPGGSLRLSCAASGRYIDETAVAWFRQAPGKEREFVAGIGGGVDITYYADSVKGRFTISRDNSKNTLYLQMNSLRPEDTAVYYCAARPGRPLITSKVADLYPYWGQGTLVTVSSPP = 230000

# kon of INS Analog 29 (other, single-chain insulin B-L2-A-L1-VHH fusion; also called Ex. 29) FVSQHLCGSHLVEALRLVCGERGFHYTPKTGGGGGGGIVEQCCHSICSLYQLENYCGGGGGQGGGGQGGGGQGGGGQGGGGQEVQLLESGGGLVQPGGSLRLSCAASGRYIDETAVAWFRQAPGKEREFVAGIGGGVDITYYADSVKGRFTISRDNSKNTLYLQMNSLRPEDTAVYYCAARPGRPLITSKVADLYPYWGQGTLVTVSSPP = 180000
